assay: Biodistribution of 68Ga-labeled peptide in mice bearing B16F10 mouse melanoma; assay type: in vivo, C57BL/6J mice; conditions: C57BL/6J, stomach, iv, with BMS 470539 (MC1R-specific inhibitor), 0.5 mg co-injected, total radioactivity, 1 h p.i. blocked, co-injection of 0.5 mg BMS 470539, read-out: Biodistribution, Stomach
MEASURED_PROPERTY: tissue uptake at 1 h (%ID/g)
Just the number in %ID/g, nothing appended.

Ask: # input compound: CCCC[C@H](NC(=O)CN1CCC(NC(=O)CN2CCN(CC(=O)O)CCN(CC(=O)O)CCN(CC(=O)O)CC2)CC1)C(=O)N[C@H]1CC(=O)NCCCC[C@@H](C(N)=O)N(C)C(=O)[C@H](Cc2c[nH]c3ccccc23)N(C)C(=O)[C@H](CCCNC(=N)N)N(C)C(=O)[C@@H](Cc2ccccc2)NC(=O)[C@H](Cc2c[nH]cn2)N(C)C1=O [^68Ga-labeled CCZ01099, metal not drawn] ; wanted: its tissue uptake at 1 h
Reply: 0.19

---

experiment: Biodistribution of 177Lu-labeled αMSH analogues in mice bearing B16F10 mouse melanoma; format: in vivo, C57BL/6J mice; conditions: mouse, kidneys, iv, total radioactivity; 120 h p.i., C57BL/6J mice, B16F10 melanoma; read-out: Biodistribution, Kidneys
Assign Criterion met whenever tissue uptake at 120 h does not fall below 0.5 %ID/g; assign Criterion not met whenever it does.

# example entries with known answers
MOLECULE: CCCC[C@H](NC(=O)CN1CCC(NC(=O)[C@H](CCCCNC(=O)CN2CCN(CC(=O)O)CCN(CC(=O)O)CCN(CC(=O)O)CC2)NC(=O)[C@H](CCC(=O)O)NC(=O)CCCc2ccc(I)cc2)CC1)C(=O)N[C@H]1CC(=O)NCCCC[C@@H](C(N)=O)N(C)C(=O)[C@H](Cc2c[nH]c3ccccc23)NC(=O)[C@H](CCCNC(=N)N)N(C)C(=O)[C@@H](Cc2ccccc2)NC(=O)[C@H](Cc2c[nH]cn2)NC1=O [^177Lu-labeled CCZ01118, metal not drawn]
CLASSIFICATION: Criterion met
//
MOLECULE: CCCC[C@H](NC(=O)CN1CCC(NC(=O)[C@H](CCCCNC(=O)CN2CCN(CC(=O)O)CCN(CC(=O)O)CCN(CC(=O)O)CC2)NC(=O)[C@H](CCC(=O)O)NC(=O)CCCc2ccc(I)cc2)CC1)C(=O)N[C@H]1CC(=O)NCCCC[C@@H](C(N)=O)NC(=O)[C@H](Cc2c[nH]c3ccccc23)NC(=O)[C@H](CCCNC(=N)N)NC(=O)[C@@H](Cc2ccccc2)NC(=O)[C@H](Cc2c[nH]cn2)NC1=O [^177Lu-labeled CCZ01082, metal not drawn]
CLASSIFICATION: Criterion met
//
MOLECULE: CCCC[C@H](NC(=O)CN1CCC(NC(=O)[C@H](CCCCNC(=O)CN2CCN(CC(=O)O)CCN(CC(=O)O)CCN(CC(=O)O)CC2)NC(=O)[C@H](CCC(=O)O)NC(=O)CCCc2ccc(I)cc2)CC1)C(=O)N[C@H]1CC(=O)NCCCC[C@@H](C(N)=O)N(C)C(=O)[C@H](Cc2c[nH]c3ccccc23)N(C)C(=O)[C@H](CCCNC(=N)N)N(C)C(=O)[C@@H](Cc2ccccc2)NC(=O)[C@H](Cc2c[nH]cn2)N(C)C1=O [^177Lu-labeled CCZ01088, metal not drawn]
CLASSIFICATION: Criterion met
//
MOLECULE: CCCC[C@H](NC(=O)CN1CCC(NC(=O)CN2CCN(CC(=O)O)CCN(CC(=O)O)CCN(CC(=O)O)CC2)CC1)C(=O)N[C@H]1CC(=O)NCCCC[C@@H](C(N)=O)NC(=O)[C@H](Cc2c[nH]c3ccccc23)NC(=O)[C@H](CCCNC(=N)N)NC(=O)[C@@H](Cc2ccccc2)NC(=O)[C@H](Cc2c[nH]cn2)NC1=O [^177Lu-labeled CCZ01048, metal not drawn, reference compound]
CLASSIFICATION: Criterion not met

Let us examine a further case.
Ask: Is it the case that CCCC[C@H](NC(=O)CN1CCC(NC(=O)CN2CCN(CC(=O)O)CCN(CC(=O)O)CCN(CC(=O)O)CC2)CC1)C(=O)N[C@H]1CC(=O)NCCCC[C@@H](C(N)=O)N(C)C(=O)[C@H](Cc2c[nH]c3ccccc23)NC(=O)[C@H](CCCNC(=N)N)N(C)C(=O)[C@@H](Cc2ccccc2)NC(=O)[C@H](Cc2c[nH]cn2)NC1=O [^177Lu-labeled CCZ01106, metal not drawn] has tissue uptake at 120 h reaching or exceeding 0.5 %ID/g?
Reply: Criterion not met

---

test: Biodistribution of 177Lu-labeled αMSH analogues in mice bearing B16F10 mouse melanoma; type: in vivo, C57BL/6J mice; details: mouse, urine, iv, total radioactivity; 1 h p.i., C57BL/6J mice, B16F10 melanoma
MEASURED_PROPERTY: excreta dose per gram or mL at 1 h (%ID/g)
Just the number in %ID/g, nothing appended.

COMPOUND: CCCC[C@H](NC(=O)CN1CCC(NC(=O)CN2CCN(CC(=O)O)CCN(CC(=O)O)CCN(CC(=O)O)CC2)CC1)C(=O)N[C@H]1CC(=O)NCCCC[C@@H](C(N)=O)N(C)C(=O)[C@H](Cc2c[nH]c3ccccc23)NC(=O)[C@H](CCCNC(=N)N)N(C)C(=O)[C@@H](Cc2ccccc2)NC(=O)[C@H](Cc2c[nH]cn2)NC1=O [^177Lu-labeled CCZ01106, metal not drawn]
excreta dose per gram or mL at 1 h / %ID/g: 222
//
COMPOUND: CCCC[C@H](NC(=O)CN1CCC(NC(=O)[C@H](CCCCNC(=O)CN2CCN(CC(=O)O)CCN(CC(=O)O)CCN(CC(=O)O)CC2)NC(=O)[C@H](CCC(=O)O)NC(=O)CCCc2ccc(I)cc2)CC1)C(=O)N[C@H]1CC(=O)NCCCC[C@@H](C(N)=O)NC(=O)[C@H](Cc2c[nH]c3ccccc23)NC(=O)[C@H](CCCNC(=N)N)NC(=O)[C@@H](Cc2ccccc2)NC(=O)[C@H](Cc2c[nH]cn2)NC1=O [^177Lu-labeled CCZ01082, metal not drawn]
excreta dose per gram or mL at 1 h / %ID/g: 87.9

// switching to the query compound
Ask: # input compound: CCCC[C@H](NC(=O)CN1CCC(NC(=O)[C@H](CCCCNC(=O)CN2CCN(CC(=O)O)CCN(CC(=O)O)CCN(CC(=O)O)CC2)NC(=O)[C@H](CCC(=O)O)NC(=O)CCCc2ccc(I)cc2)CC1)C(=O)N[C@H]1CC(=O)NCCCC[C@@H](C(N)=O)N(C)C(=O)[C@H](Cc2c[nH]c3ccccc23)N(C)C(=O)[C@H](CCCNC(=N)N)N(C)C(=O)[C@@H](Cc2ccccc2)NC(=O)[C@H](Cc2c[nH]cn2)N(C)C1=O [^177Lu-labeled CCZ01088, metal not drawn] ; wanted: its excreta dose per gram or mL at 1 h
Reply: 322

---

test: Biodistribution of 68Ga-labeled peptide in mice bearing B16F10 mouse melanoma; assay type: in vivo, C57BL/6J mice; conditions: spleen, iv, total radioactivity, 1 h p.i. unblocked, C57BL/6J mice, B16F10 melanoma, read-out: Biodistribution, Spleen
MEASURED_PROPERTY: tissue uptake at 1 h (%ID/g)
Just the number in %ID/g, nothing appended.

Ask: # input molecule: CCCC[C@H](NC(=O)CN1CCC(NC(=O)CN2CCN(CC(=O)O)CCN(CC(=O)O)CCN(CC(=O)O)CC2)CC1)C(=O)N[C@H]1CC(=O)NCCCC[C@@H](C(N)=O)N(C)C(=O)[C@H](Cc2c[nH]c3ccccc23)N(C)C(=O)[C@H](CCCNC(=N)N)N(C)C(=O)[C@@H](Cc2ccccc2)NC(=O)[C@H](Cc2c[nH]cn2)N(C)C1=O [^68Ga-labeled CCZ01099, metal not drawn] ; wanted: its tissue uptake at 1 h
Reply: 0.35

---

assay: Biodistribution of 177Lu-labeled αMSH analogues in mice bearing B16F10 mouse melanoma; format: in vivo, C57BL/6J mice; conditions: mouse, tumour/blood, iv, total radioactivity; 1 h p.i., C57BL/6J mice, B16F10 melanoma; read-out: Tumour/blood
Reported tissue to tissue ratio at 1 h values follow for various molecules
Number only, please.

MOLECULE: CCCC[C@H](NC(=O)CN1CCC(NC(=O)CN2CCN(CC(=O)O)CCN(CC(=O)O)CCN(CC(=O)O)CC2)CC1)C(=O)N[C@H]1CC(=O)NCCCC[C@@H](C(N)=O)NC(=O)[C@H](Cc2c[nH]c3ccccc23)NC(=O)[C@H](CCCNC(=N)N)NC(=O)[C@@H](Cc2ccccc2)NC(=O)[C@H](Cc2c[nH]cn2)NC1=O [^177Lu-labeled CCZ01048, metal not drawn, reference compound]
MEASURED_PROPERTY: tissue to tissue ratio at 1 h
VALUE_REPORTED: 32.4

Ask: # input molecule: CCCC[C@H](NC(=O)CN1CCC(NC(=O)[C@H](CCCCNC(=O)CN2CCN(CC(=O)O)CCN(CC(=O)O)CCN(CC(=O)O)CC2)NC(=O)[C@H](CCC(=O)O)NC(=O)CCCc2ccc(I)cc2)CC1)C(=O)N[C@H]1CC(=O)NCCCC[C@@H](C(N)=O)N(C)C(=O)[C@H](Cc2c[nH]c3ccccc23)N(C)C(=O)[C@H](CCCNC(=N)N)N(C)C(=O)[C@@H](Cc2ccccc2)NC(=O)[C@H](Cc2c[nH]cn2)N(C)C1=O [^177Lu-labeled CCZ01088, metal not drawn] ; wanted: its tissue to tissue ratio at 1 h
Reply: 1.42

Ask: Same question for CCCC[C@H](NC(=O)CN1CCC(NC(=O)CN2CCN(CC(=O)O)CCN(CC(=O)O)CCN(CC(=O)O)CC2)CC1)C(=O)N[C@H]1CC(=O)NCCCC[C@@H](C(N)=O)N(C)C(=O)[C@H](Cc2c[nH]c3ccccc23)NC(=O)[C@H](CCCNC(=N)N)N(C)C(=O)[C@@H](Cc2ccccc2)NC(=O)[C@H](Cc2c[nH]cn2)NC1=O [^177Lu-labeled CCZ01106, metal not drawn] please.
Reply: 19.2

Values were extracted from patent US11395857B2.
